Values from patent US10533010B2

biological target: Bcl-xL (residues 1-209, loop 45-86 deleted) (Homo sapiens (Human), UniProt Q07817, DEL45-86); assay: Fluorescence polarization anisotropy competition selectivity assay (FITC-Bak peptide) with Bcl-xL; format: binding; conditions: Table 3; 4 nM Bcl-xL, 10 nM FITC-Bak
Sequence (Q07817 other isoform, or with tags, fused parts or gaps del 45-86): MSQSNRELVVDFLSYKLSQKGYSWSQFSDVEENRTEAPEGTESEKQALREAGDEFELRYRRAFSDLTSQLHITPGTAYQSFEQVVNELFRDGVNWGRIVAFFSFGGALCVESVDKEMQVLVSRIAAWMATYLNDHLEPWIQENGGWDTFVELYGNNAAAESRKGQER
Values of Ki strictly less than 7 µM map to Met, and values of at least 7 µM map to Not met.

In the record for Cc1cc(OCCCc2c(C(=O)N(C)c3cccc(C(=O)O)c3)n(C)c3c(-c4c(C)nn(C)c4C)c(Cl)ccc23)cc(C)c1Cl [I-189] , is Ki less than 7 µM?
Met

In the record for Cc1cc(OCCCc2c(C(=O)Nc3cc(C(=O)O)ccn3)[nH]c3c(-c4c(C)nn(C)c4C)c(Cl)ccc23)cc(C)c1Cl [I-183] , is Ki less than 7 µM?
Not met

In the record for Cc1cc(OCCCc2c(C(=O)Nc3cncc(C(=O)O)c3)[nH]c3c(-c4c(C)nn(C)c4C)c(Cl)ccc23)cc(C)c1Cl [I-181] , is Ki less than 7 µM?
Not met

More entries:
In the record for Cc1cc(OCCCc2c(C(=O)Nc3ccc(C(=O)O)cc3)[nH]c3c(-c4c(C)nn(CCN5CCOCC5)c4C)c(Cl)ccc23)cc(C)c1Cl [I-190] , is Ki less than 7 µM?
Not met

In the record for Cc1cc(OCCCc2c(C(=O)NCc3c[nH]c(C(=O)O)c3)[nH]c3c(-c4c(C)nn(C)c4C)cccc23)cc(C)c1Cl [I-71] , is Ki less than 7 µM?
Not met

In the record for Cc1cc(OCCCc2c(C(=O)NCc3cc(C(=O)O)n(C)c3)[nH]c3c(-c4c(C)nn(C)c4C)cccc23)cc(C)c1Cl [I-74] , is Ki less than 7 µM?
Not met

In the record for Cc1cc(OCCCc2c(C(=O)Nc3cccc(C(=O)O)c3)[nH]c3c(-c4c(C)nn(C)c4C)c(Cl)ccc23)cc(C)c1Cl [I-39] , is Ki less than 7 µM?
Met

In the record for Cc1cc(OCCCc2c3n(c4c(-c5c(C)nn(C)c5C)c(Cl)ccc24)CCCN(Cc2cccc(C(=O)O)c2)C3=O)cc(C)c1Cl [I-80] , is Ki less than 7 µM?
Met

---

biological target: recombinant Mcl-1 (residues 172-327) (Homo sapiens (Human)); assay: Fluorescence polarization anisotropy competition assay (FITC-Bak or FITC-Bim BH3 peptide) with Mcl-1; assay type: binding; conditions: Table 2; Ki bins given in nM; FITC-Bak or FITC-Bim peptide competition; Ki converted from IC50; read-out: Ki for Inhibition of Mcl-1
Sequence (Q07820 172-327): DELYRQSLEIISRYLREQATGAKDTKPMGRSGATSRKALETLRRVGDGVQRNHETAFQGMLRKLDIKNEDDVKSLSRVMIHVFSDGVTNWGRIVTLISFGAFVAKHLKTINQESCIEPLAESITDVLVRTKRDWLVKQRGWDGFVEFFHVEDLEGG
Each item that follows carries a reported Ki.

Observe how each entry below is paired with its result.
Fill in the blank: the reported Ki of Cc1cc(OCCCc2c3n(c4c(-c5c(C)nn(C)c5C)c(Cl)ccc24)CCN(c2cc(NC4CCOCC4)cc(C(=O)O)c2)C3=O)cc(C)c1Cl is ____.
< 50 nM

Fill in the blank: the reported Ki of Cc1cc(OCCCc2c3n(c4c(-c5c(C)nn(C)c5C)c(Cl)ccc24)[C@@H](C)CN(Cc2ccc(C(=O)O)cn2)C3=O)cc(C)c1Cl is ____.
< 50 nM

Fill in the blank: the reported Ki of Cc1cc(OCCCc2c(C(=O)NCc3cc(C(=O)O)cc(N4CCc5ccccc5C4)n3)[nH]c3c(-c4c(C)nn(C)c4C)c(Cl)ccc23)cc(C)c1Cl is ____.
< 50 nM

Fill in the blank: the reported Ki of Cc1cc(OCCCc2c3n(c4c(-c5c(C)nn(C)c5C)c(Cl)ccc24)CCCN(C2SC(=O)NC2C(=O)O)C3=O)cc(C)c1Cl (centres unmarked) is ____.
< 50 nM

Fill in the blank: the reported Ki of CC[C@H](C)[C@H](NC(=O)c1ccc(CNC(=O)c2[nH]c3c(-c4c(C)nn(C)c4C)cccc3c2CCCOc2cc(C)c(Cl)c(C)c2)o1)C(=O)O is ____.
< 50 nM

More entries:
Fill in the blank: the reported Ki of Cc1cc(OCCCc2c(C(=O)N[C@H]3CCCC[C@H]3C(=O)O)[nH]c3c(-c4c(C)nn(C)c4C)c(Cl)ccc23)cc(C)c1Cl is ____.
< 50 nM

Fill in the blank: the reported Ki of Cc1cc(OCCCc2c(C(=O)Nc3cc[nH]n3)[nH]c3c(-c4c(C)nn(C)c4C)cccc23)cc(C)c1Cl is ____.
501 to 999 nM

Fill in the blank: the reported Ki of Cc1cc(OCCCc2c(C(=O)NCCC(=O)NS(=O)(=O)c3ccc4ccccc4c3)[nH]c3ccccc23)cc(C)c1Cl is ____.
101 to 299 nM
